Sourced from the OPERA property sets (Mansouri et al. 2018)

Overview of reported logP across a group of compounds:

>  <structure>
COC(=O)C(=Cc1cnc(SC(C)=O)n1C)C(=O)OC

>  <logP>
-0.43

$$$$
>  <structure>
COc1ccc(C=C2C(=O)NC(=S)NC2=O)cc1

>  <logP>
0.76

$$$$
>  <structure>
CCOc1cccc2nc(N)nc(N)c12

>  <logP>
1.69

$$$$
>  <structure>
CCCCNC(=O)Cn1cccc(O)c1=O

>  <logP>
0.33

$$$$

----------
Overview of reported logP across a group of compounds:
Where a SMILES comes first, the peptide text is derived from it.

>  <compound>
Nc1nc(F)nc2c1ncn2[C@@H]1O[C@H](CO)[C@@H](O)[C@H]1O

>  <logP>
-0.8

$$$$
>  <compound>
CN1CCN2c3ccccc3Cc3ccccc3C2C1 (stereo not given)

>  <logP>
4.24

$$$$
>  <compound>
CC(C)NCC(O)COc1ccc(-c2nc(C(C)C)c[nH]2)cc1 (stereo not given)

>  <logP>
2.95

$$$$
>  <compound>
COc1ccc(C2Cc3ccccc3N(CCN(C)C)C(=O)C2OC(C)=O)cc1 (stereo not given)

>  <logP>
3.2

$$$$
>  <compound>
COc1cccc(CCl)c1

>  <logP>
2.68

$$$$
>  <compound>
CCCCC(=O)NCCCCCN(O)C(=O)CCC(=O)NCCCCCN(O)C(=O)CCC(=O)NCCCCCN(O)C(C)=O

>  <logP>
0.88

$$$$
>  <compound>
CCON=C(C)c1cccc(Oc2nc(OC)cc(OC)n2)c1C(=O)OC

>  <logP>
2.96

$$$$
>  <compound>
CSc1ccc2nc(-c3ccc(N)cc3)cn2c1

>  <logP>
2.9

$$$$
>  <compound>
O=[N+]([O-])c1cn(Cc2ccccc2)cn1

>  <logP>
1.36

$$$$
>  <compound>
COC(=O)C(C)NP(=O)(OCC1C=CC(n2cc(C)c(=O)[nH]c2=O)O1)Oc1ccc(C(F)(F)F)cc1 (stereo not given)

>  <logP>
1.57

$$$$
>  <compound>
Cc1ccc(CO)c(C=NNC(=O)c2ccc(O)cc2)c1O

>  <logP>
2.56

$$$$
>  <compound>
CC(N)C(=O)NCC(=O)NC(Cc1ccccc1)C(=O)NC(C(=O)NC(Cc1ccccc1)C(=O)O)C(C)C (stereo not given) (H-AGFVF-OH; configuration not given here)

>  <logP>
-1.1

$$$$
>  <compound>
CCOC(=O)N1COCc2c1ccc1cc3ccc4c(c3nc21)COCN4C(=O)OCC

>  <logP>
2.5

$$$$
>  <compound>
COC(=O)C(C)=CC1C(C(=O)OCc2cccc(C(=O)c3ccccc3)c2)C1(C)C (stereo not given)

>  <logP>
5.45

$$$$
>  <compound>
Clc1cc(Cl)c2c(c1)Oc1c(ccc(Cl)c1Cl)O2

>  <logP>
6.43

$$$$

----------
Overview of reported logP across a group of compounds:

>  <compound>
Cc1c2oc(=O)ccc2c(C)c2c(C)coc12

>  <logP>
3.35

$$$$
>  <compound>
Cc1nc2ccccc2c(=O)n1CC(=O)N1CCCCC1

>  <logP>
1.27

$$$$
>  <compound>
CCCCN(CCO)CCCC

>  <logP>
2.65

$$$$
>  <compound>
Cc1sc2cc3oc(=O)cc(C)c3cc2c1C

>  <logP>
3.48

$$$$
>  <compound>
Nc1nc(N)c2c(I)cccc2n1

>  <logP>
2.12

$$$$
>  <compound>
O=C(c1ccccc1)c1ccnnc1

>  <logP>
1.09

$$$$
>  <compound>
COc1ccc(C2Cc3c(cccc3C(F)(F)F)N(CCN(C)C)C(=O)C2O)cc1 (stereo not drawn)

>  <logP>
4.1

$$$$
>  <compound>
CCOC(=O)C(Cc1ccccc1)(Cc1ccccc1)S(=O)(=O)c1ccc([N+](=O)[O-])cc1

>  <logP>
3.4

$$$$
